# credit: patent US20230024096A1

- Target system: SMARCA2 (Homo sapiens)
- Construct: endogenous in cells; host or cells: HT1080 (CRISPR HiBiT knock-in clone, generated in house)
- Sequence (P51531 whole entry): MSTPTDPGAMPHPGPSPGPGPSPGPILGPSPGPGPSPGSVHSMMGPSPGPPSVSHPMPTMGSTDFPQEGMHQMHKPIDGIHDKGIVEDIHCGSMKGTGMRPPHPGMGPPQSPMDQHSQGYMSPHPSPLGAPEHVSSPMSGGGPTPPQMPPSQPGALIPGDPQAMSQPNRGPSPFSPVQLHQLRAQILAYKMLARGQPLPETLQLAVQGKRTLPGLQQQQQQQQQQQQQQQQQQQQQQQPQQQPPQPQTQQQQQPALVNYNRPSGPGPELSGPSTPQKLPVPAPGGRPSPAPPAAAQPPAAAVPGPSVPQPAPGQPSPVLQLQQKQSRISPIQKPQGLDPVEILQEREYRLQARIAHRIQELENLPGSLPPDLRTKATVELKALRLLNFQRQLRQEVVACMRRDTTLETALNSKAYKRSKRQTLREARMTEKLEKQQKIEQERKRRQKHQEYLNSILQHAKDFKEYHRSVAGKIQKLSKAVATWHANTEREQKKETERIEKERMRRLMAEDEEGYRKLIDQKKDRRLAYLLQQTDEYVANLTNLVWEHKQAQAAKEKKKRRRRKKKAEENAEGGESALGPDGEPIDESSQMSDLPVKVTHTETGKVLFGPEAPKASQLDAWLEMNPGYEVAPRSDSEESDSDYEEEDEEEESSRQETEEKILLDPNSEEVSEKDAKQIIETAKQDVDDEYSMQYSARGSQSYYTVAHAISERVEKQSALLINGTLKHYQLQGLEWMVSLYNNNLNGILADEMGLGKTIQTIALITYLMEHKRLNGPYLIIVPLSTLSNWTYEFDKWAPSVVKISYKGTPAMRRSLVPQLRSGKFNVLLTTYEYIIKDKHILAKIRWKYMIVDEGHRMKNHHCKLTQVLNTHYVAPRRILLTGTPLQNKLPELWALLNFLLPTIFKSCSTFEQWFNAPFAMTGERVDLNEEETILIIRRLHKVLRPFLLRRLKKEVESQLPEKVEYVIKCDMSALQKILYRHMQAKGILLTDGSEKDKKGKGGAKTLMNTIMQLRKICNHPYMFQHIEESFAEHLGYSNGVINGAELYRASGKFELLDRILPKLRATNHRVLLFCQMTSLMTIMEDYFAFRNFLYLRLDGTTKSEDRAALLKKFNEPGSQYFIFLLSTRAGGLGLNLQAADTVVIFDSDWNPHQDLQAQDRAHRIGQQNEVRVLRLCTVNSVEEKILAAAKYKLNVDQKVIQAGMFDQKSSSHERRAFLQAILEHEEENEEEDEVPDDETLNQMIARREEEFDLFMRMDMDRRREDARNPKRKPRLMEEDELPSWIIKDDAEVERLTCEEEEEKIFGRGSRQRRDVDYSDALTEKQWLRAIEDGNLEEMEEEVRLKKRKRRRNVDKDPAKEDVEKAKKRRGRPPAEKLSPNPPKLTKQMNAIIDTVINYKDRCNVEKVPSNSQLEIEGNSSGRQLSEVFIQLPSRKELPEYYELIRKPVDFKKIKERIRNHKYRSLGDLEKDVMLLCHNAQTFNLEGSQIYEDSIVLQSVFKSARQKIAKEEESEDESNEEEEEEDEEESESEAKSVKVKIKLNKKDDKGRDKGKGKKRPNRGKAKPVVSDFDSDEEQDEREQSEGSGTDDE
- Experimental details: SMARCA2 HiBiT degradation assay (cellular)
- Assay type: cell-based
- Condition notes: 6 h incubation; HiBiT-tagged SMARCA2, luminescence read-out; table head names A549; read-out: HiBit A549 SMARCA2 IP (nM) 6 h
log10(DC50) values by entry
In plain terms, each number is the log10 of measured DC50 in nM.

Some solved entries appear below for comparison.
>  <Compound>
Nc1nnc(-c2ccccc2O)cc1N1CC2CCC(C1)N2c1cccc(OCCN2CCN(C(=O)N3CCN(c4ccc5c(c4)C(=O)N(C4CCC(=O)NC4=O)C5=O)CC3)CC2)c1 (racemic) [Example 49]

>  <log10(DC50)>
0.60

$$$$
>  <Compound>
CN(C(=O)C1CCN(Cc2cccc(N3C4CCC3CN(c3cc(-c5ccccc5O)nnc3N)C4)c2)CC1)C1CN(c2ccc3c(c2)C(=O)N(C2CCC(=O)NC2=O)C3=O)C1 (racemic) [Example 170]

>  <log10(DC50)>
1.26

$$$$
>  <Compound>
Nc1nnc(-c2ccccc2O)cc1N1CCC(NC(=O)CCN2CCC(c3ccc(OC4CCC(=O)NC4=O)cc3)CC2)(c2ccccc2)CC1 (stereo not shown) [Example 115, diformate]

>  <log10(DC50)>
2.91

$$$$
>  <Compound>
Nc1nnc(-c2ccccc2O)cc1OC1CCCN(c2ccc(N3CCN(CCCCC(=O)N4CCC(n5cc(COc6cccc7c6C(=O)N(C6CCC(=O)NC6=O)C7=O)nn5)CC4)CC3)cc2)C1 (racemic) [Example 138]

>  <log10(DC50)>
2.83

$$$$
>  <Compound>
Nc1nnc(-c2ccccc2O)cc1N1CC2CCC(C1)N2c1cccc(CC2CCN(C(=O)CCNc3cccc4c3C(=O)N(C3CCC(=O)NC3=O)C4=O)CC2)c1 (racemic) [Example 58]

>  <log10(DC50)>
1.63

$$$$

(Q) Which value of log10(DC50) has been reported for Nc1nnc(-c2ccccc2O)cc1N1CCC(C(=O)N2CC3(CCN(C(=O)COc4ccc5c(c4)C(=O)N(C4CCC(=O)NC4=O)C5=O)CC3)C2)(c2ccccc2)CC1 (stereo not shown) [Example 162] in the records?
(A) 2.48
